This collection of values is drawn from patent US6643591B1.

Molecular target: CYP2E1 (Homo sapiens, UniProt P05181)
Sequence (P05181 whole entry): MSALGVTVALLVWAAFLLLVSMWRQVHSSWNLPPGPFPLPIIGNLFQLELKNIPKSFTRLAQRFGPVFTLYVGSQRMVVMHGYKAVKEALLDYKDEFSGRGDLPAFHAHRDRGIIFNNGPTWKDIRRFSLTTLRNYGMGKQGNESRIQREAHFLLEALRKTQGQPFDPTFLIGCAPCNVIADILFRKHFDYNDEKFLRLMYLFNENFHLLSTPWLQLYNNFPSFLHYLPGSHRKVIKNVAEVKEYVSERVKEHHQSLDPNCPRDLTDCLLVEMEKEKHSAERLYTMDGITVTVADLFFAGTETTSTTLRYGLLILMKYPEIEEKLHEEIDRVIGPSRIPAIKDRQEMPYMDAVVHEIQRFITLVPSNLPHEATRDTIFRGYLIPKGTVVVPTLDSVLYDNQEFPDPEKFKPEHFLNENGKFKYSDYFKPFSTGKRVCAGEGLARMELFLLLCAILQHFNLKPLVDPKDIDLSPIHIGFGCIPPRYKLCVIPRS
Conditions: pH 7.4
// reported Intramolecular KIE (kH/kD) per item
Write the number on its own, no unit after it.

1. Cc1ccc(C)cc1    5.45

With those in mind, consider the next compound.
Query: Consider the compound shown here: COc1ccccc1C What is its recorded Intramolecular KIE (kH/kD)?
Result: 5.95

###

Parameter Intramolecular KIE (kH/kD): see the listing below.
Target: P450cam (Pseudomonas putida, UniProt P00183)
Construct: made in house
Sequence (P00183 2-415): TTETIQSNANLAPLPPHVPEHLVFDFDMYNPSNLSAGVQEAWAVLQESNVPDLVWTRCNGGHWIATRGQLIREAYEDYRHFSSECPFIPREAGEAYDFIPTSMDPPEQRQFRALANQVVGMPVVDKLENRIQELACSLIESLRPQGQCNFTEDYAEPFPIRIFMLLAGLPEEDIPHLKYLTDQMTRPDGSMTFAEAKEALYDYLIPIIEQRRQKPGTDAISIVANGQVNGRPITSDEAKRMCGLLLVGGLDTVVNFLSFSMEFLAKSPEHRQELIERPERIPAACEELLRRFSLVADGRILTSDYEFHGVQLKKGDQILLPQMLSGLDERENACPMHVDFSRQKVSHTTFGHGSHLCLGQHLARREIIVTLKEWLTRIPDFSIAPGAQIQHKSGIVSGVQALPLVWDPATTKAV
Test: Intramolecular isotope effects with purified P450cam
Type: in vitro ADME, bacterial
Conditions: benzylic hydroxylation, -CH2D (d1) substrate
No unit in the answer, only the number.

1. [2H]Cc1ccc(C[2H])cc1 [CH2D, p-Xylene-α-^2H1-α′-^2H1]    6.0
2. Cc1ccc(Cl)cc1 [Cl, p-chlorotoluene]    6.5
3. Cc1ccc(C#N)cc1 [CN, p-tolunitrile]    11.6
4. COc1ccc(C)cc1 [p-Methylanisole, p-methylanisole]    4.44

Query: Any idea what its Intramolecular KIE (kH/kD) is? The compound is Cc1ccc(Br)cc1 [Br, p-bromotoluene]
Result: 8.3

###

Molecular target: CYP2C8 (Homo sapiens)
Sequence (P10632 1-490): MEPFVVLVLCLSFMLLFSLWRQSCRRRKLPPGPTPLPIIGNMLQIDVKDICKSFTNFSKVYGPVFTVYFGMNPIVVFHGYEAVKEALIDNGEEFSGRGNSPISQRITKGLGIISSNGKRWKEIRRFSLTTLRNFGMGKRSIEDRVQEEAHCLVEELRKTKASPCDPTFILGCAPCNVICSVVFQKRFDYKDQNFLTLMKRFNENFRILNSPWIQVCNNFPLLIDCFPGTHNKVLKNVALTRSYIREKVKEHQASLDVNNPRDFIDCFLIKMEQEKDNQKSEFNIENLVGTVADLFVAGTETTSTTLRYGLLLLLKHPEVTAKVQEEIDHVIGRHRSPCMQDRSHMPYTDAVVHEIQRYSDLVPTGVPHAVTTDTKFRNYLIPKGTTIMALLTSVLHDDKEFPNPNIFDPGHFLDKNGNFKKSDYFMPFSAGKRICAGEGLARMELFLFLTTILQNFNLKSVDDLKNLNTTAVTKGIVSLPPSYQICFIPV
Assay: in vitro
Conditions: pH 7.4
Readout Label: selectivity ratio

Query: Look up selectivity ratio: COc1ccccc1C [o-Methylanisole, o-methylanisole]
Result: 1

###

Target: CYP2E1 (Homo sapiens, UniProt P05181)
Conditions: pH 7.4
Below, each of the molecules is paired with its reported Intermolecular Noncompetitive ^DV value.
No unit in the answer, only the number.

Sample answers from the record:
1. Cc1ccc(Cl)cc1    1.61
2. Cc1ccc(Br)cc1    1.07
3. Cc1ccc(C)cc1    1.05

Query: Using the record for COc1ccc(C)cc1 , report its Intermolecular Noncompetitive ^DV.
Result: 2.28

###

Test system: CYP
Assay: Activation energy differences from experimental regioselectivity of substrates in rapid equilibrium
Format: in vitro ADME
Parameters: unit not given here
Settings: difference in activation energy calculated by the experimental regioselectivity
Text: Five substrates shown to undergo rapid equilibrium between positions of metabolism have been used to prepare data for regression and then correlation with Eq. 1. The differences in activation energy calculated by the experimental regioselectivity of the substrates, along with the differences in AM1 activation enthalpies, are given in Table 1. Regression of the experimental data gives a slope correction for AM1 activation energies of 0.75±0.20.
Readout Label: ΔΔG (experimental)
// return just the number, without any unit appended

As a guide, the following entries are already answered.
1) CCCC(CCC)C(=O)O [Valproate]    −2.48
2) COc1ccccc1C    0.3
3) COc1ccc(C)cc1    1.1

// next item, ΔΔG (experimental) requested
Query: ΔΔG (experimental) lookup needed for CCCCCCCC , thanks.
Result: −3.13
